// provenance: ChEMBL document CHEMBL1123393

biological target: Serotonin 1 (5-HT1) receptor (Rattus norvegicus, UniProt P28564+P30940+P19327+P28565); assay: Binding affinity for 5-hydroxytryptamine 1 receptor of rat prefrontal cortex; assay type: tissue-based
Recorded Ki by entry

>  <compound>
COc1cc(CC(C)N)c(OC)cc1Br (racemic)

>  <target-entity>
Serotonin 1 (5-HT1) receptor (Rattus norvegicus, UniProt P28564+P30940+P19327+P28565)

>  <readout-units>
µM

>  <Ki>
3.34

$$$$
>  <compound>
CC(N)Cc1ccc(Br)cc1 (stereo not given)

>  <target-entity>
Serotonin 1 (5-HT1) receptor (Rattus norvegicus, UniProt P28564+P30940+P19327+P28565)

>  <readout-units>
µM

>  <Ki>
2.83

$$$$
>  <compound>
CCCNC(C)Cc1cc(OC)c(Br)cc1OC (stereo not given)

>  <target-entity>
Serotonin 1 (5-HT1) receptor (Rattus norvegicus, UniProt P28564+P30940+P19327+P28565)

>  <readout-units>
µM

>  <Ki>
1.32

$$$$
>  <compound>
COc1cc(Br)ccc1CC(C)N (stereo not given)

>  <target-entity>
Serotonin 1 (5-HT1) receptor (Rattus norvegicus, UniProt P28564+P30940+P19327+P28565)

>  <readout-units>
µM

>  <Ki>
2.9

$$$$
>  <compound>
COc1ccccc1CC(C)N (racemic)

>  <target-entity>
Serotonin 1 (5-HT1) receptor (Rattus norvegicus, UniProt P28564+P30940+P19327+P28565)

>  <readout-units>
µM

>  <Ki>
3.5

$$$$
